measured-on: T1, HLA-A*02:01 (human)
T1 construct: monomers captured on streptavidin plates; also called MHC class I
experiment-summary: UV peptide exchange ELISA
From the text: Candidate peptides for T cell based therapies according to the present invention were further tested for their MHC binding capacity (affinity). The individual peptide-MHC complexes were produced by UV-ligand exchange, where a UV-sensitive peptide is cleaved upon UV-irradiation, and exchanged with the peptide of interest as analyzed. Only peptide candidates that can effectively bind and stabilize the peptide-receptive MHC molecules prevent dissociation of the MHC complexes. […]
Overview of reported peptide exchange yield across a group of binders:
measurement-label: peptide exchange yield

# binder, result
measured = [
    ("GLLEKLTAI", "50 to 75%"),
    ("ALQDVPLSSV", "50 to 75%"),
    ("GLLEVMVNL", "50 to 75%"),
    ("ILLNNSGQIKL", "≥ 75%"),
    ("VLLPNDLLEKV", "50 to 75%"),
    ("WLLPYNGVTV", "50 to 75%"),
    ("ALLDPEVLSIFV", "50 to 75%"),
    ("SLFSSLEPQIQPV", "50 to 75%"),
    ("LLIGTDVSL", "50 to 75%"),
    ("ILVDWLVEV", "10 to 20%"),
    ("LLLPDQPPYHL", "50 to 75%"),
    ("FLIANVLYL", "10 to 20%"),
    ("TLIEDEIATI", "20 to 50%"),
    ("FLFDEEIEQI", "50 to 75%"),
    ("ALQETPTSV", "20 to 50%"),
    ("ILAPTVMMI", "50 to 75%"),
    ("VLIANLEKL", "≥ 75%"),
    ("GLFADLLPRL", "50 to 75%"),
    ("IMQDFPAEIFL", "≥ 75%"),
    ("YVLEDLEVTV", "20 to 50%"),
    ("TLAEEVVAL", "50 to 75%"),
    ("VMFRTPLASV", "20 to 50%"),
    ("TLLQIIETV", "50 to 75%"),
    ("SLLTEQDLWTV", "20 to 50%"),
    ("SVMEVNSGIYRV", "50 to 75%"),
    ("FLLDLDPLLL", "50 to 75%"),
]

Entry source: patent US20170037110A1
